# Lookup of reported mean particle size of raw active ingredient keyed by entry
# assay remarks: Particle size measurement (Coulter particle sizer LS230)
# Type: physicochemical
# condition summary: raw, before particle size reduction
quantity measured: mean particle size of raw active ingredient

| compound string | experimental result |
| --- | --- |
| NCCCC(O)(P(=O)(O)O)P(=O)(O)O | 190-210 μm |
| Nc1nc2c(ncn2COCCO)c(=O)[nH]1 | 54 μm |
| O=C(c1ccc(OCCN2CCCCC2)cc1)c1c(-c2ccc(O)cc2)sc2cc(O)ccc12 | 15-30 μm |
